System: SNB-19 CNS
ASSAY: NCI-60 one-dose screen, 48 h (100 = growth as untreated, 0 = no growth, -100 = all killed)
EXPERIMENTAL PARAMETERS: 10 µM unless noted
This is part of a sample that, as a whole, favours compounds with a hit. Of some 83,000 tested, about 20% had one in any assay.
Where growth equals or exceeds 50%, the correct label is YES; where it does not, the label is NO.

Decide: is the reported value of growth for COc1ccc(-c2ccc3c(N4CCOC[C@@H]4C)nc(N4CCOC[C@@H]4C)nc3n2)cc1CO equal to or greater than 50%? NO

Given CCn1c(-c2nonc2N)nc2c(C#CC(C)(C)O)ncc(OC[C@H]3CCCNC3)c21 , state whether its growth is at least 50%. YES

Is growth at least 50%? Consider CN1CCN(CC(=O)Nc2ccc(-c3nc4ccccc4s3)cc2)CC1 YES

Exam item: decide whether the reported growth for Cc1cc2c(F)c(Oc3ncnn4cc(OC[C@@H](C)OC(=O)[C@H](C)N)c(C)c34)ccc2[nH]1 is at least 50%. YES

Is reported growth greater than or equal to 50% here: Cc1ccccc1N1C(c2ccccc2)=NNC12C=CC(=O)C=C2Cl (stereo not given) YES

hey, is growth for this one >= 50%? Nc1c2c(c(O)c3c1=C(CO)C=N3)=NCCS2 NO

Quick check, growth >= 50%? CCN(CCO)CCCOc1ccc2c(Nc3cc(CC(=O)Nc4cccc(F)c4)[nH]n3)ncnc2c1 NO

Quick check: does CCCCn1c(C)nc2ccc(Nc3nc(N4CCN(C)CC4)nc4nc[nH]c34)cc21 have growth greater than or equal to 50%? YES

Reported growth reaches at least 50% for COc1ccc(COc2cc3oc(=O)c4cc(C(C)O)ccc4c3cc2OC)cc1 (stereo not given) ? NO

Does the reported growth for CC(=O)OCCC/C(=C\c1ccc2ccccc2c1)[N+](=O)[O-] fall at or above the 50% mark? NO

Does growth meet or surpass 50% for O=C(c1c(F)ccc(NS(=O)(=O)N2CC[C@@H](F)C2)c1F)c1c[nH]c2ncc(-c3cnc(C4CC4)nc3)cc12 ? YES

Evaluate Cc1nc2ccc(-n3ncc(C(=O)c4cc5ccccc5[nH]4)c3N)cc2[nH]1 : growth at minimum 50%? NO

Item CNC(=O)c1ccccc1Nc1nc(Nc2ccc3c(c2OC)CCC[C@H](N2CCN(CCO)CC2)C3)ncc1Cl with growth of 50% or above? NO

Check this compound for growth at or above 50%: Fc1ccc(NCc2cn(-c3ccccc3)nc2-c2ccc(OCc3ccccc3)cc2)cc1Cl YES

Does OCCNC(=S)Nc1ccc(-c2nc(N3C[C@H]4CC[C@@H](C3)O4)c3cccn3n2)cc1 have a reported growth of at least 50%? NO

Form field: growth at least 50%? Entry: COC(=O)CCCNc1c(-c2c(O)c(O)cc3c(O)c(-c4c(C)cc5c(-c6nc7ccccn7c6NCCCC(=O)OC)c(O)c(O)cc5c4O)c(C)cc23)nc2ccccn12 NO

Please indicate if the recorded growth for O=C(Nc1ccc(C(=O)Nc2ccc(C3=NCCCN3)cc2)cc1)Nc1ccc(C2=NCCCN2)cc1 meets or exceeds 50%. YES

For this compound, is measured growth 50% or higher? O=C(Cn1ccnc1)Nc1ccc(-c2nc3ccccc3s2)cc1 YES

Check the entry CNC(=O)c1ccc(Nc2ncc(C(F)(F)F)c(NCc3nccnc3N(C)S(C)(=O)=O)n2)cc1 : does growth equal or exceed 50%? NO

Reported growth at or above 50%? C=CCCCC(=O)CCC(=O)OCC1O[C@@H](O[C@@H]2C(O)[C@@H](OC(C)=O)C(C)O[C@H]2O[C@H](CC=C)CCCCC)C(O)[C@@H](OC(=O)/C(C)=C/C)[C@@H]1OC(=O)/C=C/c1ccccc1 (stereo not given in full) NO

Given COc1ccc(C2CC(=O)c3c(O)c(OC)c(OC)c(OC)c3O2)c(O)c1 (stereo not given) , state whether its growth is at least 50%. NO

Is growth for COc1cc2nc(Nc3cccc(Cl)c3)nc(N)c2cc1OC at or above 50%? YES

Could you please find out whether O=C(COc1ccc(/C=C2\Cc3ccc(Cl)cc3C2=O)cc1)Nc1nccs1 has growth that meets 50% or exceeds it? YES

# bool: growth of COC(=O)[C@]12CC[C@@H](C)[C@H](C)[C@@H]1C1=CC[C@@H]3[C@@]4(C)C(c5cnco5)=C[C@@](C)(CO)C4=CC[C@@]3(C)[C@]1(C)CC2 >= 50% YES

Say whether O=C1CC(c2ccc3c(c2)OCO3)c2ncn(-c3ccc(Cl)cc3)c2N1 (stereo not given) shows growth of 50% or more. NO

growth >= 50% for COc1cc(NCCN(CC(C)C)CC(C)C)c2ncc(C)cc2c1 ? YES

Test whether the compound COC(=O)[C@@H](NC(=O)[C@@H](OC)[C@@H]1Cc2cc3cc(OC4CC(OC5CC(O)C(O)C(C)O5)C(O)C(C)O4)c(C)c(O)c3c(O)c2C(=O)[C@H]1OC1CC(OC2CC(OC3CC(C)(O)C(O)C(C)O3)C(O)C(C)O2)C(O)C(C)O1)C(C)C (stereo not given in full) records growth of 50% or higher. NO

# bool: growth of CCCCCCC1(/C=N/NC(N)=O)NC(=O)NC1=O (stereo not given) >= 50% YES

State whether the measured growth reaches 50%, counting equality as reaching it, for Cc1ccsc1C(NC(=O)c1ccccc1)c1cc(Cl)c2cccnc2c1O (stereo not given) NO

Would you say c1cc[n+](Cc2c3ccccc3cc3c2ccc2ccccc23)cc1 shows growth at minimum 50%? NO

Does COC(=O)[C@@H](C)CNS(=O)(=O)N(c1cc(C(F)(F)F)cc(C(F)(F)F)c1)C1CCN(Cc2ccc(F)cc2)CC1 have a reported growth of at least 50%? YES

# bool: growth of Clc1ccc(Nc2nccc(Nc3ccc4[nH]ncc4c3)n2)cc1 >= 50% YES

Test whether the compound C/C=C/C=N/NC(=S)Nc1ccccc1 records growth of 50% or higher. YES

Threshold query (growth >= 50%) on COC(=O)[C@]12CC[C@@H](C)[C@H](C)[C@@H]1C1=CC[C@@H]3[C@@]4(C)C(C=O)=C[C@@](C)(COS(C)(=O)=O)C4=CC[C@@]3(C)[C@]1(C)CC2 NO

Answer whether growth of N#Cc1c(NC(=O)c2ccco2)[n+]([O-])c2cc(F)c(F)cc2[n+]1[O-] is greater than or equal to 50%. YES
